Assay: Cell Viability - LYMP2-015 (AID 971);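 note: cells exposed to compound for 24 h; nearly all actives have a fitted effect of over 55% in size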
Settings: LYMP2-015 lymphoblastoid cell viability; series mostly up to 92.2 µM
Records with an inconclusive call do not appear. Active and inactive are the calls of the source. Calls come from the whole dose curve; as a rule, active = well fitted cell-killing curve with a large enough effect; inconclusive = small, poorly fitted or top-dose-only effect; inactive = flat fitted curve, though single readings scatter.
OUTCOME_MEASURE: outcome

> print(dat)
                                   compound    result
1                               O=S(=O)(O)O  inactive
2                                   CC(C)=O  inactive
3        CC(O)CO (configuration not stated)  inactive
4                             CCCCCCCC(=O)O  inactive
5  CC1=C2[C@@H]([C@H](C)CC[C@H]2/C=C(\C)C(=O)O)[C@H](O)C1  inactive
6                                    IC(I)I  inactive
7       Nc1ccn([C@H]2CS[C@@H](CO)O2)c(=O)n1  inactive
